test: blockers of RIG-like receptor reporter activation – cell-based, Sendai virus stimulus, luciferase, 10K MLSCN set, TLR/RLR signaling modifier project, primary screen (AID 602276); conditions: HEK293 RL24 IRF3 luciferase reporter, at 10 µM, stronger effect = higher value;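 also: firefly luciferase from ISG56 promoter only with Renilla not read in this screen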
Response key: rule met means inhibition >= 10%; rule not met means inhibition < 10%.

Example entries begin here.
INSERT INTO measurements (compound, discrete_label) VALUES
  ('CC(C)COc1ccc(C2NC(=O)NC2=O)cc1 (stereo not drawn)', 'rule not met'),
  ('COC(=O)CNC(=O)COC(=O)c1cc(Cl)cc(Cl)c1N', 'rule not met');

Determine whether this compound has inhibition no lower than 10%: CCCCOc1ccc(C2C3CN(C(=O)OCC)CC=C3C(C#N)=C(N)C2(C#N)C#N)cc1OC (stereo not drawn) rule met
